Test: Stability of analytes in rat plasma under storage conditions
Assay type: physicochemical
Conditions: rat plasma, high QC concentration, n = 6
observationType: Stability RE, 3 freeze-thaw cycles (%)

Use the examples below as a reference point.
Q) Return Stability RE, 3 freeze-thaw cycles (reported value) for this molecule: C[n+]1c2n(c(=O)c3ccccc31)CCc1c-2[nH]c2ccccc12 [dehydroevodiamine]
A) 5.86

Q) Return Stability RE, 3 freeze-thaw cycles (reported value) for this molecule: COc1cc2c(cc1OC)C(=O)NCC2 [corydaldine]
A) −2.29

Q) Return Stability RE, 3 freeze-thaw cycles (reported value) for this molecule: COc1ccc2cc3[n+](cc2c1OC)CCc1cc2c(cc1-3)OCO2 [berberine]
A) −14.86

Q) Return Stability RE, 3 freeze-thaw cycles (reported value) for this molecule: COc1cc2c(cc1OC)-c1cc3ccc(OC)c(OC)c3c[n+]1CC2 [palmatine]
A) −12.89

Q) Return Stability RE, 3 freeze-thaw cycles (reported value) for this molecule: O=c1c2c3c(ccc2cc2n1CCc1cc4c(cc1-2)OCO4)OCO3 [8-oxocoptisine]
A) −12.48

(A) COc1cc2c(cc1OC)-c1cc3ccc4c(c3c[n+]1CC2)OCO4 [epiberberine]
(B) CCCCC=CCCCCCCCc1cc(=O)c2ccccc2n1C [evocarpine]
(C) Cn1c(=O)n(CCC2(O)C(=O)Nc3ccccc32)c(=O)c2ccccc21 (centres unmarked) [wuchuyuamide-I]
(D) COc1cc2c(cc1OC)-c1cc3ccc4c(c3c(=O)n1CC2)OCO4 [8-oxoepiberberine]
Q) Number of molecules to sort: 4. Sort criterion: Stability RE, 3 freeze-thaw cycles, ascending. Put the labels in the requested order and write them down.
A) A, D, C, B
(A: −12.84%, D: −8.93%, C: 0.37%, B: 7.91%)

---

Experiment: PK study of the 12 alkaloids in rat plasma after oral administration of ZJ and FZJ extract (LC–MS/MS)
Assay type: in vivo
Settings: rat, in vivo, po, 3.38 g/kg
observationType: MRT last (h)

Q) Return MRT last (reported value) for this molecule: "c1c2c(cc3c1OCO3)-c1cc3ccc4c(c3c[n+]1CC2)OCO4"
A) 10.7

(a) C[n+]1c2n(c(=O)c3ccccc31)CCc1c-2[nH]c2ccccc12 [dehydroevodiamine]
(b) COc1cc2c(cc1OC)-c1cc3ccc(OC)c(OC)c3c[n+]1CC2
Q) Which shows the larger MRT last value: a or b ? API: response body contains the label of the selected item.
A) b

---

Experiment: PK study of the 12 alkaloids in rat plasma after oral administration of ZJ and FZJ extract (LC–MS/MS)
Assay type: in vivo
Conditions: 3.76 g/kg; rat plasma, oral FZJ extract, mean ± SD, n = 6; read-out: Cmax
Protocol: The time schedule included 15 time-points and six rats were sampled at each time-point. […] PK parameters of the 12 alkaloids including AUC0→t, AUC0→∞, mean retention time (MRT0→t, MRT0→∞), and elimination half-life (t1/2) were calculated with non-compartmental method by DAS 2.0 software (Mathematical Pharmacology Professional Committee of China, Shanghai, China). […] The results were expressed as arithmetic mean ± standard deviation (SD).
observationType: Cmax (ng/mL)

Q) Return Cmax (reported value) for this compound: CCCCC=CCCCCCCCc1cc(=O)c2ccccc2n1C [evocarpine]
A) 4.07

(I) COc1cc2c(cc1OC)-c1cc3ccc4c(c3c[n+]1CC2)OCO4 [epiberberine]
(II) COc1cc2c(cc1OC)C(=O)NCC2 [corydaldine]
(III) O=C1NCCc2cc3c(cc21)OCO3 [noroxyhydrastinine]
(IV) COc1ccc2cc3[n+](cc2c1OC)CCc1cc2c(cc1-3)OCO2 [berberine]
(V) Cn1c(=O)n(CCC2(O)C(=O)Nc3ccccc32)c(=O)c2ccccc21 (stereo not drawn) [wuchuyuamide-I]
Q) Please give the order of these compounds when sorted by Cmax, largest value leading. Put the labels in the requested order and write them down.
A) IV, V, I, III, II

---

Experiment: Stability of analytes in rat plasma under storage conditions
Format: physicochemical
Conditions: rat plasma, medium QC concentration, n = 6
observationType: Stability RE, 30 days at −20 °C (%)

(a) COc1cc2c(cc1OC)C(=O)NCC2
(b) COc1cc2c(cc1OC)-c1cc3ccc4c(c3c(=O)n1CC2)OCO4 [8-oxoepiberberine]
Q) Which shows the larger Stability RE, 30 days at −20 °C value: a or b ? API: response body contains the label of the selected item.
A) b
(b: 0.36%, a: −11.86%)

---

Assay: PK study of the 12 alkaloids in rat plasma after oral administration of ZJ and FZJ extract (LC–MS/MS)
Type: in vivo
Conditions: 3.76 g/kg; rat plasma, oral FZJ extract, mean ± SD, n = 6; read-out: AUC0→t
observationType: AUC(0-t) (ng·h/mL)

Q) Return AUC(0-t) (reported value) for this compound: "CCCCC=CCCCCCCCc1cc(=O)c2ccccc2n1C"
A) 17.8

Q) Return AUC(0-t) (reported value) for this compound: Cn1c(=O)n(CCC2(O)C(=O)Nc3ccccc32)c(=O)c2ccccc21 (stereo not drawn) [wuchuyuamide-I]
A) 48.2

(a) COc1cc2c(cc1OC)C(=O)NCC2
(b) O=C1NCCc2cc3c(cc21)OCO3 [noroxyhydrastinine]
(c) COc1cc2c(cc1OC)-c1cc3ccc4c(c3c[n+]1CC2)OCO4 [epiberberine]
(d) COc1ccc2cc3[n+](cc2c1OC)CCc1cc2c(cc1-3)OCO2
Q) Number of compounds to sort: 4. Sort criterion: AUC(0-t), ascending. Put the labels in the requested order and write them down.
A) a, b, c, d

---

Experiment: PK study of the 12 alkaloids in rat plasma after oral administration of ZJ and FZJ extract (LC–MS/MS)
Type: in vivo
Conditions: rat, in vivo, po, 3.76 g/kg
observationType: Cmax (ng/mL)

Q) Return Cmax (reported value) for this molecule: c1c2c(cc3c1OCO3)-c1cc3ccc4c(c3c[n+]1CC2)OCO4 [coptisine]
A) 4.78

(A) COc1cc2c(cc1OC)-c1cc3ccc(OC)c(OC)c3c[n+]1CC2 [palmatine]
(B) C[n+]1c2n(c(=O)c3ccccc31)CCc1c-2[nH]c2ccccc12 [dehydroevodiamine]
Q) Which shows the larger Cmax value: A or B ? API: response body contains the label of the selected item.
A) B
(B: 85.3 ng/mL, A: 9.74 ng/mL)

---

Test: Stability of analytes in rat plasma under storage conditions
Assay type: physicochemical
Conditions: room temperature 24 h, high QC concentration, n = 6
observationType: Stability RE, processed samples' stability (%)

Use the examples below as a reference point.
Q) Return Stability RE, processed samples' stability (reported value) for this molecule: c1c2c(cc3c1OCO3)-c1cc3ccc4c(c3c[n+]1CC2)OCO4 [coptisine]
A) −8.19

Q) Return Stability RE, processed samples' stability (reported value) for this molecule: COc1cc2c(cc1OC)C(=O)NCC2 [corydaldine]
A) −10.59

(I) COc1cc2c(cc1OC)-c1cc3ccc4c(c3c(=O)n1CC2)OCO4 [8-oxoepiberberine]
(II) COc1ccc2cc3[n+](cc2c1OC)CCc1cc2c(cc1-3)OCO2 [berberine]
Q) Which shows the larger Stability RE, processed samples' stability value: I or II ? API: response body contains the label of the selected item.
A) I

---

Experiment: Dose modified systemic exposure (AUC0→∞/D, Cmax/D)
Conditions: oral ZJ extract
Procedure: Because the alkaloids content in ZJ and FZJ were no longer linear with the proportion of CR and EF after extraction process, AUC0→∞/D (ratio of AUC0→∞ and dose) and Cmax/D (ratio of Cmax and dose) were calculated to estimate the dose modified systemic exposure levels of the 12 alkaloids (Table 3). […] Physicochemical properties of these alkaloids had been calculated in silico to predict their human colon adenocarcinoma cell (Caco-2) permeability according to the three-property based rule (3PRule). […]
observationType: AUC0→∞/D (ratio of AUC0→∞ and dose)

Use the examples below as a reference point.
Q) Return AUC0→∞/D (ratio of AUC0→∞ and dose) (reported value) for this molecule: "COc1cc2c(cc1OC)C(=O)NCC2"
A) 1688.21

Q) Return AUC0→∞/D (ratio of AUC0→∞ and dose) (reported value) for this molecule: Cn1c(=O)n(CCC2(O)C(=O)Nc3ccccc32)c(=O)c2ccccc21 (stereo not shown) [wuchuyuamide-I]
A) 172.57

(A) O=C1NCCc2cc3c(cc21)OCO3 [noroxyhydrastinine]
(B) COc1cc2c(cc1OC)-c1cc3ccc4c(c3c[n+]1CC2)OCO4 [epiberberine]
(C) O=c1c2c3c(ccc2cc2n1CCc1cc4c(cc1-2)OCO4)OCO3
(D) COc1cc2c(cc1OC)-c1cc3ccc4c(c3c(=O)n1CC2)OCO4 [8-oxoepiberberine]
Q) Please give the order of these molecules when sorted by AUC0→∞/D (ratio of AUC0→∞ and dose), largest value leading. Put the labels in the requested order and write them down.
A) A, D, C, B

---

Assay: Two-compartment model fitting of C–T curves (DAS 2.0)
Type: in vivo, rat
Conditions: oral FZJ extract
observationType: r^2 (correlation coefficient method), two-compartment model fitting

Q) Return r^2 (correlation coefficient method), two-compartment model fitting (reported value) for this molecule: O=C1NCCc2cc3c(cc21)OCO3 [noroxyhydrastinine]
A) 0.802

Q) Return r^2 (correlation coefficient method), two-compartment model fitting (reported value) for this molecule: COc1cc2c(cc1OC)C(=O)NCC2 [corydaldine]
A) 0.805

Q) Return r^2 (correlation coefficient method), two-compartment model fitting (reported value) for this molecule: Cn1c(=O)n(CCC2(O)C(=O)Nc3ccccc32)c(=O)c2ccccc21 (stereo not shown) [wuchuyuamide-I]
A) 0.519

Q) Return r^2 (correlation coefficient method), two-compartment model fitting (reported value) for this molecule: CCCCC=CCCCCCCCc1cc(=O)c2ccccc2n1C [evocarpine]
A) 0.740
